test system: velvetleaf (Abutilon theophrasti, ABUTH); assay: Post-emerge greenhouse herbicide activity screening, phytotoxicity rating; format: in vivo; conditions: 250 g ai/ha, 14 days after application
What ABUTH phytotoxicity rating (0-100 scale) was measured for each of the following?
The answer should be a number; do not append a unit.

Problem: Give reported ABUTH phytotoxicity rating (0-100 scale) value for Cn1nc(-c2cc(Oc3ncccn3)c(Cl)cc2F)c(Cl)c1[S+]([O-])C(F)F (centres unmarked)
Solution: 100

Problem: Give reported ABUTH phytotoxicity rating (0-100 scale) value for `Cn1nc(-c2cc(Oc3ncccn3)c(Cl)cc2F)c(=O)n(C)c1=S`
Solution: 100

Problem: Give reported ABUTH phytotoxicity rating (0-100 scale) value for `Cn1c(=S)n(C)c(=O)n(-c2cc(Oc3ccccc3)c(Cl)cc2F)c1=O`
Solution: 40

Problem: Give reported ABUTH phytotoxicity rating (0-100 scale) value for `Cn1c(C(F)(F)F)cc(=O)n(-c2cc(Oc3ccccc3N)c(Cl)cc2F)c1=S`
Solution: 95

Problem: Give reported ABUTH phytotoxicity rating (0-100 scale) value for `Cn1c(=S)n(C)c(=O)n(-c2cc(Oc3ccccc3N)c(Cl)cc2F)c1=O`
Solution: 40
